Tested on: UO-31 renal
Assay: NCI-60 one-dose screen, 48 h (100 = growth as untreated, 0 = no growth, -100 = all killed)
Details: 10 µM unless noted
This is part of a sample that, as a whole, favours compounds with a hit. Of some 83,000 tested, about 20% had one in any assay.
Binarize growth at 70%; below is condition met, at or above is condition not met.

compound: Cc1ccc(C23CCC(=O)N2CCc2cncn23)cc1 (configuration not stated)
assigned_category: condition not met
//
compound: c1ccc(-c2nc(N3CCNCC3)c3oc(-c4ccccc4)nc3n2)cc1
assigned_category: condition met
//
compound: Nc1ccc(N)c2c1C(=O)c1cccc([N+](=O)[O-])c1C2=O
assigned_category: condition met
//
compound: C#C[C@]1(O)CC[C@H]2[C@@H]3CC=C4c5sc(-c6ccccc6)nc5CC[C@]4(C)[C@H]3CC[C@@]21C
assigned_category: condition not met
//
compound: CCOC(=O)CC1CSC(N/N=C(/C)c2cccc(C(F)(F)F)c2)=N1 (configuration not stated)
assigned_category: condition not met
//
compound: O=c1c(Cc2ccc(F)cc2)cc(-c2ccccc2)nn1C/C(=N/O)c1ccccc1
assigned_category: condition met
//
compound: CCCCC#Cc1c(I)n(C2OC(CO[Si](C)(C)C(C)(C)C)C3OC(C)(C)OC32)c(=O)[nH]c1=O (configuration not stated)
assigned_category: condition met
//
compound: Cc1c(Cl)cccc1NC(=O)c1sc2nc3c(cc2c1N)CCCC3
assigned_category: condition met
//
compound: C=CCOC(=O)C1=C(C)N(CC)C(=O)N(CC)C1c1c(Cl)n(C)c2ccccc12 (configuration not stated)
assigned_category: condition met
//
compound: COc1cccc2cc(N(C)c3ncnc4ccccc34)ccc12
assigned_category: condition met
//
compound: O=C(O)CCCN1C(=O)CSC1=S
assigned_category: condition not met
//
compound: N#Cc1c(-c2ccc(F)cc2)cc(-c2cccc(Cl)c2)[nH]c1=O
assigned_category: condition met
//
compound: COc1cc(/C=C/C(=O)c2ccc(-n3cc(CN4CCN(c5cc6c(cc5F)c(=O)c(C(=O)O)cn6C5CC5)CC4)nn3)cc2)cc(OC)c1OC
assigned_category: condition met
//
compound: CCCCC1=C(Br)C(=O)c2ncccc2C1=O
assigned_category: condition not met
//
compound: COc1cc2c(c(OC)c1OC)CCC(c1cccc(C(=O)Nc3ccccc3Br)c1)O2 (configuration not stated)
assigned_category: condition met
//
compound: N#C/C(=C/C=C/c1ccccc1)S(=O)c1ccccc1 (configuration not stated)
assigned_category: condition met
//
compound: COC(=O)c1cc(-c2cc(OC)c(OC)c(OC)c2)[nH]c1N/N=C/c1c(Cl)cccc1Cl
assigned_category: condition met
//
compound: COc1ccc(C2CC(=O)Oc3c(OC)c4c(c(OC)c32)OCO4)cc1 (configuration not stated)
assigned_category: condition not met
//
compound: CC1=C2[C@@H](CC1)[C@]1(C)O[C@@](C(C)C)(C[C@H]1OC(=O)CO)[C@H]2OC(=O)CCCc1ccccc1
assigned_category: condition met
//
compound: Nc1cc(-c2ccc(Cl)cc2)nn1-c1nc(-c2ccc(Br)cc2)cs1
assigned_category: condition not met
//
compound: CCN(CC)c1ccc(/C=N/NC(=O)c2ccccc2Nc2ccnc(C(F)(F)F)c2)c(O)c1
assigned_category: condition met
//
compound: CO[C@]12C=C/C(=C(/C(=O)OCc3cccnc3)C(=O)CCCCCCCC[C@]3(OC)C=C/C(=C(/C(=O)OCc4cccnc4)C(=O)CCCCCCCC1)O3)O2
assigned_category: condition met
//
compound: CCN(CC)CCCNc1cc(OC)cc2cccnc12
assigned_category: condition not met
//
compound: Cc1[nH]c(C(=O)Nc2ccc(C(N)=O)cc2OC(C)C)c(Cl)c1Cl
assigned_category: condition not met
//
compound: CN1CCN(Cc2ccc(NC(=O)c3cncc(C#Cc4c(N)ncc5c(F)cccc45)c3)cc2C(F)(F)F)CC1
assigned_category: condition met
//
compound: CN1CCN(Cc2ccc(NC(=O)c3cncc(C#Cc4c(N)ncc5cc(F)ccc45)c3)cc2C(F)(F)F)CC1
assigned_category: condition met
//
compound: CC(C)(C)CC(C)(C)Nc1c(-c2c(O)c3ccccc3oc2=O)nc2sccn12
assigned_category: condition not met
//
compound: CCCCCCCCCCCCCC[n+]1ccc2c(C)c3c(c(C)c2c1)c1cc(O)ccc1n3CC
assigned_category: condition met
//
compound: COc1cc(NC(=O)c2cncnc2Nc2ccc3c(ccn3Cc3cccc(F)c3)c2)cc(OC)c1
assigned_category: condition met

* * *

System: HT29 colon
Test: NCI-60 one-dose screen, 48 h
Conditions: 10 µM unless noted
The panel holds about 83,000 compounds, 20% with a hit somewhere; the sample as a whole holds those more often. Activity calls are given as the source filed them. The calls were made as follows: active = growth percent below 10; inactive = the rest.
Classes used: active, inactive

compound: COc1ccc2c(c1)C(c1c[nH]c3ccccc13)(c1c[nH]c3ccccc13)CCO2
assigned_category: inactive

compound: COc1ccc(Cn2cc3c(c2)-c2oncc2CC3)cc1
assigned_category: active

compound: Nc1nc(N)c2c(n1)NC(c1cccc(Nc3ccnc4cc(C(F)(F)F)ccc34)c1)CC(c1ccc(Cl)cc1)=N2 (stereo not drawn)
assigned_category: inactive

* * *

Tested on: HCT-15 colon
Assay: NCI-60 one-dose screen, 48 h (100 = growth as untreated, 0 = no growth, -100 = all killed)
Conditions: 10 µM unless noted
Compounds without any hit were thinned out: in the full panel of roughly 83,000, 20% have a hit. The source made the active and inactive calls. The calls were made as follows: active = growth percent below 10; inactive = the rest.

molecule: COc1ccc(S(=O)(=O)NC2c3ccccc3CC2O)cc1OC (stereo not drawn)
growth: 102% (inactive)

molecule: Cc1c(CC(=O)Nc2ccccc2)nnn1-c1ccccc1
growth: 101% (inactive)

molecule: N=C(N)c1ccc(-c2ccc(-c3ccccc3)s2)nc1
growth: 44.9% (inactive)

* * *

System: RPMI-8226 leukemia
Experiment: NCI-60 one-dose screen, 48 h (100 = growth as untreated, 0 = no growth, -100 = all killed)
Settings: 10 µM unless noted
The panel holds about 83,000 compounds, 20% with a hit somewhere; the sample as a whole holds those more often.

compound: CCN(CC)CCN1C(=O)c2c(c(C)c3c(oc4cc(OC)ccc43)c2C)C1=O
growth (%): 88.1
//
compound: O=C(Nc1ncc(Cc2ccc(Cl)cc2)s1)C1=NCCCCN1
growth (%): 97
//
compound: O=c1oc2ccccc2cc1-c1nn(-c2ccccc2)cc1/C=N/Nc1nc(-c2ccccc2)c(N=Nc2ccccc2)s1
growth (%): 63.1
//
compound: O=C1/C(=C/c2cccc([N+](=O)[O-])c2)COc2ccc(O)c(O)c21
growth (%): -24.7
//
compound: CNC(=O)c1cc(Oc2ccc3nc(NC(=O)NC(C)C)sc3c2)ccn1
growth (%): 73.2
//
compound: O=[N+]([O-])c1ccc(N/N=C\c2cc(Cl)ccc2O)nc1
growth (%): 40.8
//
compound: O=C(O)c1nn(-c2ccc(Cl)cc2)nc1N1CCCC1
growth (%): 101
//
compound: C=CCn1c(SCC(=O)Nc2ccc(C(=O)/C=C/c3ccc(Cl)cc3)cc2)nnc1-c1ccccc1
growth (%): -16
//
compound: C1=C2CCCC3=Cc4ccccc4OC23Oc2ccccc21
growth (%): 26
//
compound: COc1cc(C(=O)n2nc(NCCCc3ccccc3)c3cc(N)ccc32)cc(OC)c1OC
growth (%): 69.5
//
compound: C=C(C)[C@@H]1CC[C@]2(C#N)CC[C@]3(C)[C@H](CC[C@@H]4[C@@]5(C)CCCNC(C)(C)[C@@H]5CC[C@]43C)[C@@H]12
growth (%): -18.6
//
compound: Cc1ccc2c(c1)CC(O)CC1C(=O)N(CCO)CC(=O)N21 (configuration not stated)
growth (%): 98.8

* * *

System: NCI-H522 lung
Assay: NCI-60 one-dose screen, 48 h (100 = growth as untreated, 0 = no growth, -100 = all killed)
Conditions: 10 µM unless noted
This is part of a sample that, as a whole, favours compounds with a hit. Of some 83,000 tested, about 20% had one in any assay.

compound: Cc1ccc(NC(=O)c2ccc(Nc3ncnc4c3cnn4-c3cccc(F)c3)cc2)cc1
growth [%]: 96
//
compound: COc1c(O[C@@H]2OC(CO)[C@H](O)[C@H](O)C2O)cc2oc3cc(O)c(CC=C(C)C)c(O)c3c(=O)c2c1CC=C(C)C (some centres undefined)
growth [%]: 64.6
//
compound: CCN1CCN(CCOc2ccc(CNc3ccc4nc(CCC5CCCCC5)[nH]c4c3)cc2)CC1
growth [%]: 32
//
compound: CCN(CC)CCCNc1cc(OC)cc2cccnc12
growth [%]: 94.7
//
compound: O=C(c1ccc(F)cc1)C1CCN(CCn2c(=O)[nH]c3ccccc3c2=O)CC1
growth [%]: 82.9
//
compound: CCNCCNc1c(C)c(-c2ccc(C(F)(F)F)cc2)c(C#N)c2nc3ccccc3n12
growth [%]: 76.8
//
compound: C[C@H]1c2ccccc2CN1CCCOc1cc2c(cc1OCC1CC1)C1(CCCC1)C(N)=N2
growth [%]: 73.7
//
compound: COC(CCP(=O)(c1ccccc1)c1ccccc1)(C(=O)c1ccccc1)c1ccccc1 (centres undefined)
growth [%]: 28.9
//
compound: Cc1ccc2c(n1)C[C@H](C(C)(C)O)CC[C@H]2C
growth [%]: 94.3
//
compound: Cc1ccc(-c2nc(C#N)c(S(=O)(=O)n3nc(C)cc3N)o2)cc1
growth [%]: -15.8
//
compound: CSc1nc(CC(C)C)c(C#N)c(=O)n1C
growth [%]: 39.2
//
compound: Nc1ncc(-c2ccc3ncnc(N4CCc5cc(F)c(Cl)cc54)c3c2)cc1C=O
growth [%]: 26.7
//
compound: CCCCCCCCCCCCCC[n+]1ccc2c(C)c3c(c(C)c2c1)c1cc(O)ccc1n3CC
growth [%]: -42.9
//
compound: C(CCCSC1=NCCN1)CCSC1=NCCN1
growth [%]: 103

Where do these numbers come from? They come from PubChem BioAssay (NCI).
